Experiment: Distribution (50 mg/kg) was determined in liver 60 min after intravenous administration
Format: ADME, organism-based
Settings: read-out: Tissue distribution
measured.quantity: concentration at 1 h (ng/g)
Give bare numbers, in ng/g.

Input: Record request: concentration at 1 h value, item Cn1nnnc1SCC1=C(C(=O)O)N2C(=O)[C@@H](NC(=O)/C(=N/N)c3csc(N)n3)[C@H]2SC1
Output: 9220

----------
Assay: Distribution (50 mg/kg) was determined in kidney 60 min after intramuscular administration
Format: ADME, organism-based
Details: im, read-out: Tissue distribution
measured.quantity: concentration at 1 h (ng/g)
Numbers only, in ng/g.

Input: Record request: concentration at 1 h value, item Cn1nnnc1SCC1=C(C(=O)O)N2C(=O)[C@@H](NC(=O)/C(=N/N)c3csc(N)n3)[C@H]2SC1
Output: 22900

----------
Experiment: Half-life administered, intravenously
Format: ADME, organism-based
Conditions: in vivo, iv
measured.quantity: half-life (min)
Answers are plain numbers, in min.

Input: Record request: half-life value, item Cn1nnnc1SCC1=C(C(=O)O)N2C(=O)[C@@H](NC(=O)/C(=N/N)c3csc(N)n3)[C@H]2SC1
Output: 45

----------
Experiment: Serum level was determined at 240 min after an intravenous administration of 50 mg/kg in rats
Type: ADME, organism-based
Design: dose 50 mg/kg, route intravenous
Settings: rat, read-out: Serum level
measured.quantity: concentration at 4 h (ng/mL)
One number for each entry, in ng/mL.

Input: Record request: concentration at 4 h value, item Cn1nnnc1SCC1=C(C(=O)O)N2C(=O)[C@@H](NC(=O)/C(=N/N)c3csc(N)n3)[C@H]2SC1
Output: 3650

----------
Test: Distribution (50 mg/kg) was determined in liver 30 min after intravenous administration
Assay type: ADME, organism-based
Details: read-out: Tissue distribution
measured.quantity: concentration at 0.5 h (ng/g)
Answers are plain numbers, in ng/g.

Input: Record request: concentration at 0.5 h value, item Cn1nnnc1SCC1=C(C(=O)O)N2C(=O)[C@@H](NC(=O)/C(=N/N)c3csc(N)n3)[C@H]2SC1
Output: 18800

----------
Assay: Distribution (50 mg/kg) was determined in kidney 5 min after intramuscular administration
Type: ADME, organism-based
Conditions: im, read-out: Tissue distribution
measured.quantity: concentration at 5 min
Hi, when you answer, please include the unit after the number. Thanks!

Input: Record request: concentration at 5 min value, item Cn1nnnc1SCC1=C(C(=O)O)N2C(=O)[C@@H](NC(=O)/C(=N/N)c3csc(N)n3)[C@H]2SC1
Output: 6420 ng/g

----------
Assay: Distribution (50 mg/kg) was determined in kidney 15 min after intramuscular administration
Format: ADME, organism-based
Details: im, read-out: Tissue distribution
measured.quantity: concentration at 0.25 h
Hi, when you answer, please include the unit after the number. Thanks!

Input: Record request: concentration at 0.25 h value, item Cn1nnnc1SCC1=C(C(=O)O)N2C(=O)[C@@H](NC(=O)/C(=N/N)c3csc(N)n3)[C@H]2SC1
Output: 25100 ng/g

----------
Experiment: Serum level was determined at 30 min after an intravenous administration of 50 mg/kg in rats
Assay type: ADME, organism-based
Set-up: dose 50 mg/kg, route intravenous
Conditions: rat, read-out: Serum level
measured.quantity: concentration at 0.5 h (µg/mL)
Give bare numbers, in µg/mL.

Input: Record request: concentration at 0.5 h value, item Cn1nnnc1SCC1=C(C(=O)O)N2C(=O)[C@@H](NC(=O)/C(=N/N)c3csc(N)n3)[C@H]2SC1
Output: 87.2

----------
Experiment: Serum level was determined at 60 min after an intravenous administration of 50 mg/kg in rats
Type: ADME, organism-based
Design: dose 50 mg/kg, route intravenous
Conditions: rat, read-out: Serum level
measured.quantity: concentration at 1 h (µg/mL)
Give bare numbers, in µg/mL.

Input: Record request: concentration at 1 h value, item Cn1nnnc1SCC1=C(C(=O)O)N2C(=O)[C@@H](NC(=O)/C(=N/N)c3csc(N)n3)[C@H]2SC1
Output: 52.5

----------
Assay: Serum level was determined at 360 min after intramuscular administration of 50 mg/kg in rats
Assay type: ADME, organism-based
Parameters: dose 50 mg/kg, route intramuscular
Settings: rat, im, read-out: Serum level
measured.quantity: concentration at 6 h (ng/mL)
Give bare numbers, in ng/mL.

Input: Record request: concentration at 6 h value, item Cn1nnnc1SCC1=C(C(=O)O)N2C(=O)[C@@H](NC(=O)/C(=N/N)c3csc(N)n3)[C@H]2SC1
Output: 3430

----------
Experiment: Serum level was determined at 15 min after intramuscular administration of 50 mg/kg in rats
Assay type: ADME, organism-based
Design: dose 50 mg/kg, route intramuscular
Settings: rat, im, read-out: Serum level
measured.quantity: concentration at 0.25 h (µg/mL)
Give bare numbers, in µg/mL.

Input: Record request: concentration at 0.25 h value, item Cn1nnnc1SCC1=C(C(=O)O)N2C(=O)[C@@H](NC(=O)/C(=N/N)c3csc(N)n3)[C@H]2SC1
Output: 86.2

----------
Assay: Serum level was determined at 240 min after intramuscular administration of 50 mg/kg in rats
Type: ADME, organism-based
Design: dose 50 mg/kg, route intramuscular
Conditions: rat, im, read-out: Serum level
measured.quantity: concentration at 4 h
Hi, when you answer, please include the unit after the number. Thanks!

Input: Record request: concentration at 4 h value, item Cn1nnnc1SCC1=C(C(=O)O)N2C(=O)[C@@H](NC(=O)/C(=N/N)c3csc(N)n3)[C@H]2SC1
Output: 10200 ng/mL

----------
Test: Distribution (50 mg/kg) was determined in lung 120 min after intramuscular administration
Format: ADME, organism-based
Details: im, read-out: Tissue distribution
measured.quantity: concentration at 2 h

Input: Record request: concentration at 2 h value, item Cn1nnnc1SCC1=C(C(=O)O)N2C(=O)[C@@H](NC(=O)/C(=N/N)c3csc(N)n3)[C@H]2SC1
Output: ≤ 5000 ng/g

----------
Assay: Distribution (50 mg/kg) was determined in liver 120 min after intramuscular administration
Type: ADME, organism-based
Details: im, read-out: Tissue distribution
measured.quantity: concentration at 2 h (ng/g)
Give bare numbers, in ng/g.

Input: Record request: concentration at 2 h value, item Cn1nnnc1SCC1=C(C(=O)O)N2C(=O)[C@@H](NC(=O)/C(=N/N)c3csc(N)n3)[C@H]2SC1
Output: 5270

----------
Test: Distribution (50 mg/kg) was determined in liver 15 min after intravenous administration
Format: ADME, organism-based
Conditions: read-out: Tissue distribution
measured.quantity: concentration at 0.25 h
Hi, when you answer, please include the unit after the number. Thanks!

Input: Record request: concentration at 0.25 h value, item Cn1nnnc1SCC1=C(C(=O)O)N2C(=O)[C@@H](NC(=O)/C(=N/N)c3csc(N)n3)[C@H]2SC1
Output: 25800 ng/g

----------
Test: Distribution (50 mg/kg) was determined in lung 30 min after intramuscular administration
Format: ADME, organism-based
Conditions: im, read-out: Tissue distribution
measured.quantity: concentration at 0.5 h
Hi, when you answer, please include the unit after the number. Thanks!

Input: Record request: concentration at 0.5 h value, item Cn1nnnc1SCC1=C(C(=O)O)N2C(=O)[C@@H](NC(=O)/C(=N/N)c3csc(N)n3)[C@H]2SC1
Output: 12200 ng/g

----------
Experiment: Serum level was determined at 60 min after intramuscular administration of 50 mg/kg in rats
Type: ADME, organism-based
Design: dose 50 mg/kg, route intramuscular
Settings: rat, im, read-out: Serum level
measured.quantity: concentration at 1 h (µg/mL)
One number for each entry, in µg/mL.

Input: Record request: concentration at 1 h value, item Cn1nnnc1SCC1=C(C(=O)O)N2C(=O)[C@@H](NC(=O)/C(=N/N)c3csc(N)n3)[C@H]2SC1
Output: 64.4

----------
Test: Half-life administered, intramuscularly
Type: ADME
Settings: im
measured.quantity: half-life

Input: Record request: half-life value, item Cn1nnnc1SCC1=C(C(=O)O)N2C(=O)[C@@H](NC(=O)/C(=N/N)c3csc(N)n3)[C@H]2SC1
Output: 69 min

----------
Assay: Distribution (50 mg/kg) was determined in liver 5 min after intravenous administration
Format: ADME, organism-based
Conditions: read-out: Tissue distribution
measured.quantity: concentration at 5 min
Hi, when you answer, please include the unit after the number. Thanks!

Input: Record request: concentration at 5 min value, item Cn1nnnc1SCC1=C(C(=O)O)N2C(=O)[C@@H](NC(=O)/C(=N/N)c3csc(N)n3)[C@H]2SC1
Output: 43200 ng/g

----------
Experiment: Serum level was determined at 5 min after intramuscular administration of 50 mg/kg in rats
Assay type: ADME, organism-based
Set-up: dose 50 mg/kg, route intramuscular
Details: rat, im, read-out: Serum level
measured.quantity: concentration at 5 min (ng/mL)
Answers are plain numbers, in ng/mL.

Input: Record request: concentration at 5 min value, item Cn1nnnc1SCC1=C(C(=O)O)N2C(=O)[C@@H](NC(=O)/C(=N/N)c3csc(N)n3)[C@H]2SC1
Output: 34600

src = ChEMBL document CHEMBL1123730
